- Study target: Nuclear receptor subfamily 1 group I member 2 (Rattus norvegicus)
- Experimental details: Rat pregnane X receptor (rPXR) activation by small molecules, qHTS assay (AID 1346983); note: % is set by controls: 0 for no effect and ±100 for the full control effect; nearly all actives have a fitted effect of over 20% in size
- Condition info: rPXR luciferase reporter cells, One-Glo luminescence, 24 h; stronger effect = higher value
Results filed as inconclusive are left out.
Assignment: determine reported max activation for the given compounds.
Numeric only. Scale: %

input: Sample `O=c1[nH]c(=O)n([C@H]2C[C@H](O)[C@@H](CO)O2)cc1F` — what was its max activation?
output: -2.43

input: Requested field: max activation. Item: `CCCCCCCCCCC[C@@H](C[C@@H]1OC(=O)[C@H]1CCCCCC)OC(=O)[C@H](CC(C)C)NC=O`
output: -3.72

input: Could you tell me which max activation is on file for `CCCCCCCCCCCCCCCC[N+](C)(C)CC` ?
output: -22.3

input: Item `Cc1c(C)c2c(c(C)c1OC(=O)c1cccnc1)CC[C@@](C)(CCC[C@H](C)CCC[C@H](C)CCCC(C)C)O2` has what recorded max activation?
output: 0.296

---

- Experimental details: qHTS assay to identify small molecule antagonists of the estrogen related receptor (ERR) signaling pathway from Tox21 library - cell viability counter screen (AID 1224834); note: nearly all actives have a fitted effect of over 30% in size
- Condition info: ERR reporter cells viability, CellTiter-Fluor, 17.5 h; series mostly up to 92.4 µM
- Description: National Center for Advancing Translational Sciences [NCATS] NIH Chemical Genomics Center [NCGC] U.S. Environmental Protection Agency [EPA] National Institutes of Environmental Health Sciences [NIEHS] National Toxicology Program [NTP] […] The ERR cells were dispensed at 2,000 cells/5 ul/well in 1536-well white plates using a Multidrop dispenser. […] After 30-minute incubation at 37 C/5% CO2, the fluorescence intensity in the plates was measured using a ViewLux plate reader.
Inconclusive results are not listed. Calls of active or inactive are those of the source. The call rests on the fitted dose curve; in most records, active means well fitted cell-killing curve with a large enough effect in the repeat runs; inconclusive means weak or mixed curves; inactive means flat fitted curve, though single readings scatter.
Hi! Could you answer with just one of these? 1 (active), 0 (inactive)

input: Name the outcome recorded for `Cl[Si](Cl)(c1ccccc1)c1ccccc1` in the assay.
output: 0

input: Which result was noted for this compound in the test: `O=C(O)c1ccc2cc(C(=O)O)ccc2c1`
output: 0

input: Which outcome did this test record for the compound `CN(C)CCN1CCN(c2cccc(Cl)c2)C1=O` ?
output: 0

input: Just curious, what result did `CC(C)NC[C@@H](O)COc1ccc(CC(N)=O)cc1` get here?
output: 0

input: Which result was noted for this compound in the test: `CN1CCC[C@@H]1CCO[C@](C)(c1ccccc1)c1ccc(Cl)cc1`
output: 1

input: What outcome does the record of this test show for `CN(C)Cc1ccccc1O` ?
output: 0

input: Recorded test call requested for `Cc1cc(C)c(/C=C2\C(=O)Nc3ccccc32)[nH]1`
output: 0

input: Please indicate how the test categorized `Cc1cccc2cccnc12` .
output: 0

input: Give the logged outcome of this assay for the following compound: `COc1cc(S(=O)(=O)O)c(C)cc1N=Nc1c(O)ccc2cc(S(=O)(=O)O)ccc12`
output: 1

input: What is the recorded call for this compound in the test? `C=Cc1ccccc1C=C`
output: 0

input: Test call, this compound: `O=[N+]([O-])c1ccc(F)c(Cl)c1`
output: 0

input: Dear colleague, could you share the recorded outcome for `OCCN1CCN(CCCN2c3ccccc3Sc3ccc(C(F)(F)F)cc32)CC1` when you have a moment?
output: 1

input: Identify the outcome logged in this assay for the compound shown: `Cc1ccc(N/N=c2\c(=O)cc/c(=N\Nc3ccc(S(=O)(=O)O)cc3)c2=O)c(C)c1`
output: 1

input: Returns: the outcome recorded for `Cc1cccc(C(=O)O)c1O` in this assay.
output: 0

input: Please let me know the test result on file for `O=C(/C=C/c1ccccc1)OC/C=C/c1ccccc1` .
output: 0

input: Call for entry `CCO[Si](OCC)(OCC)OCC` :
output: 0

input: Could you kindly confirm the outcome this assay logged for `NC(=O)c1cccc([N+](=O)[O-])c1` ?
output: 0

input: Short answer needed: outcome of this test for `CCC(=O)C(=O)CC` ?
output: 0

input: Hi, sorry to bother you, what did the test record for `CCCCCCCC` ?
output: 0

input: # outcome recorded in this test, key = `Cc1c(C)c([N+](=O)[O-])c(C(C)(C)C)c([N+](=O)[O-])c1C`
output: 0

input: Which outcome was entered for the compound CC(C(=O)O)c1ccc2c(c1)[nH]c1ccc(Cl)cc12 (stereo not drawn) in this test?
output: 0

input: What is the recorded call for this compound in the test? `O=S(=O)(O)c1ccccc1/C=C/c1ccc(-c2ccc(/C=C/c3ccccc3S(=O)(=O)O)cc2)cc1`
output: 0

input: What call does the record list for `O=C1c2ccccc2C(=O)N1SC1CCCCC1` ?
output: 1

---

- Experimental details: qHTS RealTime-Glo MT Cell Viability Assay in HepG2 cells - 40 hour (AID 1224870); note: nearly all actives have a fitted effect of over 50% in size
- Condition info: RealTime-Glo luminescence; series mostly up to 76.8 µM
Results filed as inconclusive are left out. Active and inactive are the calls of the source. Calls come from the whole dose curve; as a rule, active = well fitted cell-killing curve with a large enough effect in the repeat runs; inconclusive = weak or mixed curves, or effect the other way; inactive = flat fitted curve, though single readings scatter.
Outcomes you can answer with include only these: Yes (active), No (inactive)

input: How was CCCC(=O)OCOC(=O)C1=C(C)NC(C)=C(C(=O)OC)C1c1cccc(Cl)c1Cl (centres undefined) classified in this test?
output: No

input: Would you mind telling me which call this test gave `O=C(O)Cc1ccccc1Nc1c(Cl)cccc1Cl` ?
output: No

input: Can you look up the reported call for CC(N=C(NC#N)Nc1ccncc1)C(C)(C)C (centres undefined) for me?
output: No

input: For `CC(C)=CCC1=C(O)c2ccccc2C(=O)C1=O` , which call appears in the assay record?
output: No

input: Please indicate how the test categorized `CCO[Si](OCC)(OCC)OCC` .
output: No

input: Test call for this compound, please: `O=C1OC2(c3ccc(O)cc3Oc3cc(O)ccc32)c2ccc(N=C=S)cc21`
output: No

input: # fetch the recorded call for CCCCCCC1CCCC(=O)O1 (centres undefined) here
output: No

input: Tell me the assay call for `Nc1nc(-c2ccccc2)cs1` please.
output: No

input: Returns: the outcome recorded for `Cc1cccc2cccnc12` in this assay.
output: No

input: // return assay outcome for `CCc1cccc(CC)c1NC(=O)CN(CC(=O)O)CC(=O)O`
output: No

input: Could you kindly confirm the outcome this assay logged for `O=c1oc2cc(O)ccc2c2oc3cc(O)ccc3c12` ?
output: No

input: Given `O=[N+]([O-])c1cccc(C(F)(F)F)c1` , state the outcome it received in this test.
output: No

input: Per the assay record, what outcome was assigned to CC(C)(C)c1ccc(C(O)CCCN2CCC(C(O)(c3ccccc3)c3ccccc3)CC2)cc1 (centres undefined) ?
output: Yes

input: Please share the test call associated with `S=c1nccc[nH]1` .
output: No

---

- Experimental details: qHTS assay to identify small molecule HDAC inhibitors (AID 1259364);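 note: wild-type HCT-116 cells with endogenous class I/II HDAC activity; nearly all actives have a fitted effect of over 45% in size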
- Condition info: HCT-116 HDAC-Glo I/II luminescence, 2 h; series mostly up to 92.4 µM
Results filed as inconclusive are left out. Activity calls are given as the source filed them. Calls follow the shape of the dose curve; as a rule, active = well fitted inhibition curve with a large enough effect in the repeat runs; inconclusive = weak or mixed curves; inactive = flat fitted curve, though single readings scatter.
// allowed return values: True = active, False = inactive

input: Hey, what did the test say about `CCc1oc2ccccc2c1C(=O)c1cc(I)c(O)c(I)c1` ?
output: False

input: For CCC(CC)C(C)CCOC(C)=O (centres undefined) , what call appears in the results of this test?
output: False

input: Test call for this compound, please: CCCCN(CCCC)CC(O)c1cc(Cl)cc2c1-c1ccc(Cl)cc1/C2=C/c1ccc(Cl)cc1 (centres undefined)
output: False

input: For `CC(C)CCCCCOC(=O)CCS` , what call appears in the results of this test?
output: False

input: Outcome? `Oc1c(I)cc(Cl)c2cccnc12`
output: False

input: Assay outcome for `C=CC(=O)OCCOC(=O)C=C` : what was it?
output: False

input: Hi, sorry to bother you, what did the test record for `CCCCCc1ccc(Cl)cc1` ?
output: False

input: Each compound tested received a call. Report the one for `c1ccc(C(O[C@@H]2CCCN(CCc3ccc4c(c3)OCO4)C2)c2ccccc2)cc1` .
output: False

input: What was the test verdict on `Cc1c(C)c2c(c(C)c1O)CC[C@@](C)(CCC[C@H](C)CCC[C@H](C)CCCC(C)C)O2` ?
output: False

input: Please indicate how the test categorized `C=Cc1ccccc1C=C` .
output: False

input: In this assay, the call recorded for `CC1(C)CCC[C@]2(C)[C@H]3CCO[C@]3(C)CC[C@@H]12` was what?
output: False

input: Each compound tested received a call. Report the one for `O=C(O)Cc1ccc2c(c1)C(=O)c1ccccc1CO2` .
output: False

input: What did the test return for `Cc1nc2n(c(=O)c1CCN1CCC(c3noc4cc(F)ccc34)CC1)CCCC2` ?
output: False

input: Could you please tell me the result logged for `Cc1cc(C(C)(C)C)cc(C)c1CC1=NCCN1` in this assay?
output: False

input: I would be grateful if you could indicate the recorded call for `Clc1sc(Cl)c(Cl)c1Cl` .
output: False

input: Test call for this compound, please: C=CC(C)(CCC=C(C)C)OC=O (centres undefined)
output: False

input: Which outcome was entered for the compound `Fc1ccc(C(c2ccc(F)cc2)N2CCNCC2)cc1` in this test?
output: False

input: Called result for `Cc1ccc(O)c(O)c1`
output: False

input: For this compound, state the assay outcome: `Cc1ccc(C(=O)O)cc1`
output: False

input: # fetch the recorded call for `CC(=O)c1ccc(C(C)=O)cc1` here
output: False

input: Could you please tell me the result logged for CN1CCN2c3ccccc3Cc3ccccc3C2C1 (centres undefined) in this assay?
output: False

input: In this assay, the call recorded for `COc1cccc(OC)c1C(=O)O` was what?
output: False

input: Hi, sorry to bother you, what did the test record for CCCCCCCCCCCC(=O)OCC(C)OC(=O)CCCCC(=O)O (centres undefined) ?
output: False

input: Hello, I am checking results. What call was entered for `Cc1ccc(-c2ccccc2)cc1` ?
output: False

input: In this assay, the call recorded for `CCCCCCCCCCCCCC[N+](C)(C)C` was what?
output: False

input: Hey, what did the test say about `O=C(O)c1cc(=O)c2ccccc2o1` ?
output: False

input: Dear all, I need the recorded test outcome for `[Cu+]` , thank you.
output: False

input: Could you check what this test reported for `Cc1cccc(C(=O)O)c1O` ?
output: False

input: Assay result, entry `COc1ccc(-c2coc3cc(O)ccc3c2=O)cc1` — outcome?
output: True

input: Please indicate how the test categorized `O=S(=O)(O)c1ccc(N=Nc2c(O)ccc3ccccc23)cc1` .
output: True

input: Given `Cc1ccc(N/N=c2\c(=O)cc/c(=N\Nc3ccc(S(=O)(=O)O)cc3)c2=O)c(C)c1` , state the outcome it received in this test.
output: True

input: Record request — test call for CCOC(=O)c1ccc(C2CCC(NC[C@H](O)COc3ccc(O)c(NS(C)(=O)=O)c3)CC2)cc1 (some centres undefined)
output: False

input: So what was the verdict on `C=C(C)C(=O)OCCCCCCCCCC` in this test?
output: False

input: Assay outcome for `CN1CCC[C@@H]1CCO[C@](C)(c1ccccc1)c1ccc(Cl)cc1` : what was it?
output: False

input: What is the recorded call for this compound in the test? `OC[C@H]1O[C@H](O[C@H]2O[C@H](CO)[C@@H](O)[C@H](O)[C@H]2O)[C@H](O)[C@@H](O)[C@@H]1O`
output: False

input: Which outcome was entered for the compound OC1CCCc2ccccc21 (centres undefined) in this test?
output: False

input: Could you check what this test reported for CCO[C@@H]1O[C@H](C(COCc2ccccc2)OCc2ccccc2)[C@H](OCc2ccccc2)[C@H]1O (some centres undefined) ?
output: False

input: What did this assay record as the result for `O=C(/C=C/c1ccc(O)c(O)c1)O[C@@H](C(=O)O)[C@@H](OC(=O)/C=C/c1ccc(O)c(O)c1)C(=O)O` ?
output: False

input: Per the assay record, what outcome was assigned to `CCCCCCCCCCCCCCCC[N+](C)(C)CC` ?
output: False

Measured values drawn from PubChem BioAssay (Tox21) for this set.
